measured target: 3-oxo-5-alpha-steroid 4-dehydrogenase 1 (Homo sapiens)
Sequence (P18405 whole entry): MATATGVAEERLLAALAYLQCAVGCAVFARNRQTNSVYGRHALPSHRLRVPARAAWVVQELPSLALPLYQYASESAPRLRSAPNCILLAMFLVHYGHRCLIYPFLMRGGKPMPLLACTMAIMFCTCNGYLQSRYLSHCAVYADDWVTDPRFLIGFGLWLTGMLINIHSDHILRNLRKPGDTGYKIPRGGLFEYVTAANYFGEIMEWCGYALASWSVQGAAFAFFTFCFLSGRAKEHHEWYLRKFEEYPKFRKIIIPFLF
experiment description: Inhibition of recombinant human 5-alpha reductase-1 […] after pre-incubation for 10 minutes
endpoint name: Ki (nM)
Express the result in nM but write the number alone.

- compound: "C[C@]12CCC(=O)C=C1NCC1C2CC[C@@]2(C)C1CC[C@@H]2C(=O)N1CCSCC1 (some centres undefined)"
  measured target: "3-oxo-5-alpha-steroid 4-dehydrogenase 1 (Homo sapiens)"
  endpoint name: "Ki"
  display unit: "nM"
  readout value: 570
- compound: "CON(C)C(=O)[C@H]1CCC2C3CNC4=CC(=O)CC[C@]4(C)C3CC[C@@]21C (some centres undefined)"
  measured target: "3-oxo-5-alpha-steroid 4-dehydrogenase 1 (Homo sapiens)"
  endpoint name: "Ki"
  display unit: "nM"
  readout value: 2300
- compound: "COC(=O)[C@H]1CCC2C3CNC4=CC(=O)CC[C@]4(C)C3CC[C@@]21C (some centres undefined)"
  measured target: "3-oxo-5-alpha-steroid 4-dehydrogenase 1 (Homo sapiens)"
  endpoint name: "Ki"
  display unit: "nM"
  readout value: 150
- compound: "C[C@]12CCC(=O)C=C1NCC1C2CC[C@@]2(C)C1CC[C@@H]2C(=O)NC(C1CCCCC1)C1CCCCC1 (some centres undefined)"
  measured target: "3-oxo-5-alpha-steroid 4-dehydrogenase 1 (Homo sapiens)"
  endpoint name: "Ki"
  display unit: "nM"
  readout value: 20
- compound: "C[C@]12CCC(=O)C=C1NCC1C2CC[C@@]2(C)C1CC[C@@H]2C(=O)NN(c1ccccc1)c1ccccc1 (some centres undefined)"
  measured target: "3-oxo-5-alpha-steroid 4-dehydrogenase 1 (Homo sapiens)"
  endpoint name: "Ki"
  display unit: "nM"
  readout value: 14

Exercise: Value lookup for Ki; key = C[C@]12CCC(=O)C=C1NCC1C2CC[C@@]2(C)C1CC[C@@H]2C(=O)NC(c1ccc(Cl)cc1)c1ccc(Cl)cc1 (some centres undefined)
Key: 20

Exercise: Value lookup for Ki; key = CCN(C)C(=O)[C@H]1CCC2C3CNC4=CC(=O)CC[C@]4(C)C3CC[C@@]21C (some centres undefined)
Key: 720

Exercise: Value lookup for Ki; key = C[C@]12CCC(=O)C=C1NCC1C2CC[C@@]2(C)C1CC[C@@H]2C(=O)N1CCOCC1 (some centres undefined)
Key: 2200

Exercise: Value lookup for Ki; key = C[C@]12CCC(=O)C=C1NCC1C2CC[C@@]2(C)C1CC[C@@H]2C(=O)NC(c1ccccc1)(c1ccccc1)c1ccccc1 (some centres undefined)
Key: 8.2

Exercise: Value lookup for Ki; key = CC(C)(C)NC(=O)[C@H]1CCC2C3CNC4=CC(=O)CC[C@]4(C)C3CC[C@@]21C (some centres undefined)
Key: 820

Exercise: Value lookup for Ki; key = C[C@]12CCC(=O)C=C1NCC1C2CC[C@@]2(C)C1CC[C@@H]2C(=O)N1CCNCC1 (some centres undefined)
Key: 8600

Exercise: Value lookup for Ki; key = CC(C)N(C(=O)[C@H]1CCC2C3CNC4=CC(=O)CC[C@]4(C)C3CC[C@@]21C)C(C)C (some centres undefined)
Key: 190

Exercise: Value lookup for Ki; key = CCN(CC)C(=O)[C@H]1CCC2C3CNC4=CC(=O)CC[C@]4(C)C3CC[C@@]21C (some centres undefined)
Key: 750

Every entry's value here was drawn from ChEMBL document CHEMBL1126579.
